- TARGET_SYSTEM: A*11:01, P04439
- RUN_PARAMETERS: modification not given
EXPERIMENTAL_READOUT: IC50

Fill in IC50 for record VTFKTAHAK […, serotype 1]
16 nM
